The reported numbers originate from paper PMC2248166.

target_system: HLA A*3001 (Homo sapiens, UniProt P04439, D140H/D185E/E176W/F33S/G80R/H175R/K168Q/R138E/R41S)
Sequence (P04439 25-365 limits assumed, stated change not applied): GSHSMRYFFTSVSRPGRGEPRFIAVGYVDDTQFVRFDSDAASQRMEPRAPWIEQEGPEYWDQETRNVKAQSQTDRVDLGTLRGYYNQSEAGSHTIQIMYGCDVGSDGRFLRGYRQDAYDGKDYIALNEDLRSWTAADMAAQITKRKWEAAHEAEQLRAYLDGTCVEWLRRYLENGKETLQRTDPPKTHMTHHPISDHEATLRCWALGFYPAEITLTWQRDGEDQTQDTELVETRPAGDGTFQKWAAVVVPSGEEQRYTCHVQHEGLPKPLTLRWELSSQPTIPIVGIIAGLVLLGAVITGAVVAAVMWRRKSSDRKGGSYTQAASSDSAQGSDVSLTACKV
assay_summary: biochemical
Where a SMILES comes first, the peptide text is derived from it.
What IC50 was measured for each of the following?
Reply with the number and its unit after it.

For CC[C@H](C)[C@H](NC(=O)[C@H](Cc1ccc(O)cc1)NC(=O)[C@H](CC(C)C)NC(=O)[C@@H]1CCCN1C(=O)[C@H](CC(=O)O)NC(=O)[C@H](CCCNC(=N)N)NC(=O)[C@@H](NC(=O)[C@@H](N)CCSC)[C@@H](C)O)C(=O)N[C@@H](Cc1ccc(O)cc1)C(=O)O [3102.0147] (H-MTRDPLYIY-OH) the molecule record lists IC50 as 17 nM

The molecule CC[C@H](C)[C@H](NC(=O)[C@@H](N)CCCCN)C(=O)N[C@@H](CCCCN)C(=O)N[C@@H](C)C(=O)NCC(=O)N1CCC[C@H]1C(=O)N[C@@H](CCCNC(=N)N)C(=O)N[C@@H](Cc1ccc(O)cc1)C(=O)N[C@H](C(=O)O)C(C)C [3102.0097] (H-KIKAGPRYV-OH) showed IC50 equal to 6.9 nM

---

target_system: HLA B*1501 (Homo sapiens, UniProt P01889, A329T/A93T/A95T/C349S/D201E/D98Y/E187L/E204Q/E69M/E70A/K202T/N87E/Q94N/R155S/R180W/S121R/S35A/S48A/V306I/V36M/Y140S/Y91S)
assay_summary: biochemical
Type: binding
Where a SMILES comes first, the peptide text is derived from it.
Please go through the items and note down their pIC50.
Please keep in mind that pIC50 is minus log10 of the molar concentration; only the number is needed.

Field pIC50 (entry CC[C@H](C)[C@H](N)C(=O)N[C@H](C(=O)N[C@H](C(=O)N1CCC[C@H]1C(=O)N[C@@H](CC(C)C)C(=O)N[C@@H](CO)C(=O)N[C@H](C(=O)N[C@@H](CO)C(=O)N[C@H](C(=O)O)[C@@H](C)CC)C(C)C)[C@@H](C)CC)[C@@H](C)CC [3102.0502] (H-IIIPLSVSI-OH) ) reads 6.52

The recorded pIC50 for CSCC[C@H](NC(=O)[C@H](CCC(N)=O)NC(=O)[C@H](CCC(N)=O)NC(=O)[C@@H](NC(=O)[C@H](CCC(=O)O)NC(=O)[C@@H]1CCCN1C(=O)[C@H](CO)NC(=O)[C@H](CO)NC(=O)[C@@H](N)CCCCN)[C@@H](C)O)C(=O)O [3102.1065] (H-KSSPETQQM-OH) is 7.52

Form field pIC50, entry CC[C@H](C)[C@H](NC(=O)[C@H](CCC(N)=O)NC(=O)[C@@H](N)CO)C(=O)N[C@H](C(=O)N[C@H](C(=O)N[C@@H](CC(C)C)C(=O)N[C@H](C(=O)N[C@@H](C)C(=O)N[C@@H](Cc1ccccc1)C(=O)O)[C@@H](C)O)[C@@H](C)O)[C@@H](C)CC [3102.1111] (H-SQIITLTAF-OH) : 9.00

Briefly, pIC50 measured for CC[C@H](C)[C@H](NC(=O)[C@H](CCC(=O)O)NC(=O)[C@@H](N)CCC(=O)O)C(=O)N[C@@H](CO)C(=O)N[C@H](C(=O)N[C@@H](CO)C(=O)N[C@@H](CC(C)C)C(=O)N[C@@H](CO)C(=O)N[C@@H](Cc1ccccc1)C(=O)O)[C@@H](C)O [3102.0958] (H-EEISTSLSF-OH) : 8.68

compound CC[C@H](C)[C@H](N)C(=O)N[C@H](C(=O)N[C@@H](CC(C)C)C(=O)N[C@H](C(=O)N[C@@H](CC(N)=O)C(=O)N[C@H](C(=O)N[C@H](C(=O)N[C@@H](CC(N)=O)C(=O)N[C@H](C(=O)O)[C@@H](C)CC)C(C)C)C(C)C)[C@@H](C)O)[C@@H](C)O [3102.0320] (H-ITLTNVVNI-OH) , pIC50 observed: 7.92

Given item CC(C)[C@H](NC(=O)[C@H](CCCNC(=N)N)NC(=O)[C@@H](N)Cc1ccccc1)C(=O)N[C@H](C(=O)N[C@@H](CCCCN)C(=O)N1CCC[C@H]1C(=O)N[C@@H](CC(N)=O)C(=O)N[C@@H](CO)C(=O)N[C@@H](Cc1ccccc1)C(=O)O)C(C)C [3102.1127] (H-FRVVKPNSF-OH) , the value recorded as its pIC50 is 6.97

So, CC[C@H](C)[C@H](NC(=O)[C@@H](N)CC(C)C)C(=O)N[C@@H](CC(N)=O)C(=O)N[C@@H](CC(N)=O)C(=O)NCC(=O)N[C@@H](CCCCN)C(=O)N[C@@H](CS)C(=O)N[C@H](C(=O)N[C@@H](Cc1ccccc1)C(=O)O)[C@@H](C)O [3102.0899] (H-LINNGKCTF-OH) ? Its pIC50 was 7.21

Record CSCC[C@H](NC(=O)[C@@H](N)CC(C)C)C(=O)N[C@@H](Cc1ccccc1)C(=O)N[C@@H](CCCCN)C(=O)N[C@@H](Cc1c[nH]cn1)C(=O)N[C@@H](CC(C)C)C(=O)N[C@@H](CC(C)C)C(=O)N[C@@H](Cc1c[nH]cn1)C(=O)N1CCC[C@H]1C(=O)O [3102.0908] (H-LMFKHLLHP-OH) . Reported pIC50: 6.99

response.value for CC[C@H](C)[C@H](NC(=O)[C@H](C)NC(=O)[C@H](CC(C)C)NC(=O)[C@@H](N)CC(C)C)C(=O)N[C@@H](CO)C(=O)N[C@@H](C)C(=O)N[C@H](C(=O)N[C@@H](Cc1ccc(O)cc1)C(=O)N[C@@H](Cc1ccccc1)C(=O)O)C(C)C [3102.0875] (H-LLAISAVYF-OH) (field: pIC50) = 7.49

pIC50 recorded for this compound, CSCC[C@H](NC(=O)[C@H](C)NC(=O)[C@@H]1CCCN1C(=O)[C@@H](NC(=O)[C@H](Cc1ccc(O)cc1)NC(=O)[C@H](C)NC(=O)[C@H](CCCCN)NC(=O)[C@H](CCC(N)=O)NC(=O)[C@@H](N)CCC(=O)O)C(C)C)C(=O)O [3102.1038] (H-EQKAYVPAM-OH) , is 9.11

Measured pIC50, CC[C@H](C)[C@H](NC(=O)[C@@H](N)CC(C)C)C(=O)NCC(=O)N[C@@H](C)C(=O)N[C@@H](CCCNC(=N)N)C(=O)N[C@@H](CCCNC(=N)N)C(=O)N[C@H](C(=O)N[C@@H](CO)C(=O)N[C@@H](Cc1ccccc1)C(=O)O)[C@@H](C)O [3102.0774] (H-LIGARRTSF-OH) : 7.40

# compound CC[C@H](C)[C@H](NC(=O)[C@H](CO)NC(=O)[C@H](CC(C)C)NC(=O)CNC(=O)[C@H](CCC(=O)O)NC(=O)[C@H](CO)NC(=O)[C@H](Cc1ccc(O)cc1)NC(=O)[C@H](CC(C)C)NC(=O)[C@@H](N)CCCNC(=N)N)C(=O)O [3102.1232] (H-RLYSEGLSI-OH) ; its pIC50 = 8.35

Note to self: pIC50 recorded for CC[C@H](C)[C@H](NC(=O)[C@H](CO)NC(=O)[C@@H](N)CC(C)C)C(=O)N[C@@H](Cc1ccccc1)C(=O)N[C@@H](Cc1ccccc1)C(=O)N[C@@H](Cc1ccc(O)cc1)C(=O)N[C@@H](CO)C(=O)N[C@@H](CO)C(=O)N[C@@H](Cc1ccccc1)C(=O)O [3102.1177] (H-LSIFFYSSF-OH) was 7.77

---

target_system: HLA A*3001 (Homo sapiens, UniProt P04439, D140H/D185E/E176W/F33S/G80R/H175R/K168Q/R138E/R41S)
assay_summary: biochemical
pIC50: −log10 of the molar value. Where a SMILES comes first, the peptide text is derived from it.
Decide using pIC50: a value greater than or equal to 9 is yes, a smaller one is no.

hey, is pIC50 for this one >= 9? CC[C@H](C)[C@H](NC(=O)[C@@H](N)CCCCN)C(=O)N[C@@H](CCCNC(=N)N)C(=O)N1CCC[C@H]1C(=O)N[C@H](C(=O)N[C@@H](CCCNC(=N)N)C(=O)N[C@@H](CO)C(=O)N[C@H](C(=O)N[C@@H](Cc1ccc(O)cc1)C(=O)O)C(C)C)[C@@H](C)O [3102.0206] (H-KIRPTRSVY-OH) no

Say whether CC[C@H](C)[C@H](NC(=O)[C@H](C)NC(=O)[C@H](Cc1c[nH]cn1)NC(=O)[C@H](CO)NC(=O)[C@@H](N)CCCCN)C(=O)N[C@@H](Cc1ccc(O)cc1)C(=O)N[C@@H](Cc1c[nH]c2ccccc12)C(=O)N[C@@H](CC(=O)O)C(=O)N[C@@H](CCCCN)C(=O)O [3102.0046] (H-KSHAIYWDK-OH) shows pIC50 of 9 or more. no

Can CC(C)[C@H](NC(=O)[C@H](CO)NC(=O)[C@H](CCCNC(=N)N)NC(=O)[C@H](CCCCN)NC(=O)[C@H](CO)NC(=O)[C@H](CC(N)=O)NC(=O)[C@H](CCCNC(=N)N)NC(=O)[C@H](CC(N)=O)NC(=O)[C@@H](N)CCCCN)C(=O)O [3102.0025] (H-KNRNSKRSV-OH) be said to have pIC50 at or above 9? no

Threshold query (pIC50 >= 9) on CC[C@H](C)[C@H](N)C(=O)N[C@H](C(=O)N[C@@H](CCCCN)C(=O)N[C@@H](CO)C(=O)N1CCC[C@H]1C(=O)N[C@@H](Cc1ccc(O)cc1)C(=O)N[C@@H](CCSC)C(=O)N[C@@H](Cc1ccccc1)C(=O)N[C@@H](C)C(=O)O)[C@@H](C)CC [3102.0003] (H-IIKSPYMFA-OH) no

Hi, just wondering whether CC[C@H](C)[C@H](NC(=O)[C@H](CC(N)=O)NC(=O)[C@@H](NC(=O)[C@H](CC(N)=O)NC(=O)[C@H](CCCCN)NC(=O)[C@H](CO)NC(=O)[C@@H](N)CCCCN)[C@@H](C)CC)C(=O)N[C@@H](CCC(=O)O)C(=O)N[C@H](C(=O)O)C(C)C [3102.0150] (H-KSKNINIEV-OH) shows pIC50 of 9 or higher. yes

For this compound, is measured pIC50 9 or higher? CC[C@H](C)[C@H](NC(=O)[C@H](CCCNC(=N)N)NC(=O)[C@@H](NC(=O)[C@H](CC(=O)O)NC(=O)[C@H](CCCCN)NC(=O)[C@@H](NC(=O)[C@@H](N)CCCNC(=N)N)[C@@H](C)O)[C@@H](C)O)C(=O)N[C@@H](CCCCN)C(=O)N[C@@H](C)C(=O)O [3102.0205] (H-RTKDTRIKA-OH) yes

Is reported pIC50 greater than or equal to 9 here: CSCC[C@H](NC(=O)[C@H](CCSC)NC(=O)[C@@H]1CCCN1C(=O)[C@@H](NC(=O)[C@@H](NC(=O)[C@H](CC(N)=O)NC(=O)[C@H](CCCNC(=N)N)NC(=O)[C@H](CO)NC(=O)[C@@H](N)CCCCN)[C@@H](C)O)[C@@H](C)O)C(=O)O [3102.0277] (H-KSRNTTPMM-OH) yes

Textbook exercise: given the entry CSCC[C@H](NC(=O)[C@H](Cc1c[nH]cn1)NC(=O)[C@H](CC(N)=O)NC(=O)[C@H](CCCNC(=N)N)NC(=O)[C@H](Cc1ccccc1)NC(=O)[C@@H](N)CCCNC(=N)N)C(=O)N[C@@H](CS)C(=O)N[C@@H](CC(C)C)C(=O)N[C@H](C(=O)O)C(C)C [3102.0134] (H-RFRNHMCLV-OH) , state whether its pIC50 is greater than or equal to 9. no

Reported pIC50 reaches at least 9 for CC(C)C[C@H](NC(=O)[C@H](C)NC(=O)[C@H](CCC(=O)O)NC(=O)[C@H](CCCNC(=N)N)NC(=O)[C@@H](NC(=O)[C@@H](N)CCCCN)C(C)C)C(=O)N[C@@H](CC(=O)O)C(=O)NCC(=O)N[C@H](C(=O)O)C(C)C [3102.0286] (H-KVREALDGV-OH) ? yes
